Source listed as ChEMBL document CHEMBL3576869.

# system tested: Serine/threonine-protein kinase mTOR (Homo sapiens, UniProt P42345)
pIC50: −log10 of the molar value.
quantity kind: pIC50

| test smiles | pIC50 |
| --- | --- |
| COc1ncc(-c2ccc3nncc(-c4ccncc4)c3c2)cc1NS(=O)(=O)c1ccc(F)cc1F | 7.67 |
| COc1ncc(-c2cc3c(-c4ccncc4)ncnc3s2)cc1NS(=O)(=O)c1ccc(F)cc1F | 6.66 |
| COc1ncc(-c2cc3c(-c4ccncc4)ccnc3cn2)cc1NS(=O)(=O)c1ccc(F)cc1F | 8.52 |

(I) O=S(=O)(Nc1cc(-c2cc3c(-c4ccncc4)ncnc3s2)cnc1Cl)c1ccc(F)cc1
(II) Cc1ncc(-c2cc3c(-c4ccncc4)ncnc3s2)cc1NS(=O)(=O)c1ccc(F)cc1F
Ask | Parameter check: reported pIC50 is higher for which label, I or II ? Mark your selection by writing its label.
Reply | I
